- tested-system: BaF3_HER2WT cells (Homo sapiens, UniProt P04626)
- Sequence (P04626 whole entry, change not shown): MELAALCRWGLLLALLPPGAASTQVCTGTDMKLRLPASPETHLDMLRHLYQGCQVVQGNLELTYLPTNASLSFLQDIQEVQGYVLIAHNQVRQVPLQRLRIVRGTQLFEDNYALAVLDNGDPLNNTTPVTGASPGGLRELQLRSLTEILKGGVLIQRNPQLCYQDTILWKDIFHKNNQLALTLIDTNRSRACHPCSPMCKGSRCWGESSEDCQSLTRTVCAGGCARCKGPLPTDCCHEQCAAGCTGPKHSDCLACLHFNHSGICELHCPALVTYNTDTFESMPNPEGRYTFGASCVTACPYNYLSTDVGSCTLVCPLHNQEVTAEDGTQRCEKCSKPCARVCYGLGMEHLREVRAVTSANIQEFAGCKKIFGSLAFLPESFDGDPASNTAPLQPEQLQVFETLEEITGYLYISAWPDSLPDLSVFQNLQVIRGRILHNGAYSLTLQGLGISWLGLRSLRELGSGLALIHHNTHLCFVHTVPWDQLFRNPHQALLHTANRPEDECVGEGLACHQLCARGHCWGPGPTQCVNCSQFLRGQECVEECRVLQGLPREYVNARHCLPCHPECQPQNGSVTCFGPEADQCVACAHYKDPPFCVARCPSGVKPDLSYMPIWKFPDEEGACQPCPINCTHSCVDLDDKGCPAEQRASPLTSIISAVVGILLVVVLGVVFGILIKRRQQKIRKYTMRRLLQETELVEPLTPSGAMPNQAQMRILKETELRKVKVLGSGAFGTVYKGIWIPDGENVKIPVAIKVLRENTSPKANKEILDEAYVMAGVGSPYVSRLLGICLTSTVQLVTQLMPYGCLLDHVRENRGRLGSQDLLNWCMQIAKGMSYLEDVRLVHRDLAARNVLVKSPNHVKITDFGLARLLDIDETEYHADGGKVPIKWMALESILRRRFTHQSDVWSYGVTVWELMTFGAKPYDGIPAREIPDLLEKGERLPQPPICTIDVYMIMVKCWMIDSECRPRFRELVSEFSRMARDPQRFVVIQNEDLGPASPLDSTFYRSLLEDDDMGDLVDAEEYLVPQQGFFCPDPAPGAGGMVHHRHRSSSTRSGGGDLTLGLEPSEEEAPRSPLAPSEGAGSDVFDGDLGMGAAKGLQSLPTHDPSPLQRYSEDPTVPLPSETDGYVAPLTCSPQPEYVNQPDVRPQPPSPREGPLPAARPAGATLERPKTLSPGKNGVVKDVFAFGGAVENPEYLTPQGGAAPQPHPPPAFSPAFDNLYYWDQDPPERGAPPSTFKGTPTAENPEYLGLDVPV
- assay-text: Cell growth inhibition assay (CellTiterGlo), BaF3_HER2WT
- Type: cell-based
- condition: cell growth inhibition, 3 days treatment, read-out: HER2 WT IC50
measured-attribute: GI50

What does the record list as GI50 for Cc1cc(Nc2ncnn3ccc(C4CCCN(C(=O)C(F)Cl)CC4)c23)ccc1Oc1ccn2ncnc2c1 (single isomer, unassigned) [Examples 145, 146, 147 and 148, third eluting isomer] ?
200 to 500 nM

Proceed to Cc1cc(Nc2ncnn3ccc(C4CC5CCC4CN5C(=O)/C=C/CN(C)C)c23)ccc1Oc1ccn2ncnc2c1 (single isomer, unassigned; first eluting) [Examples 137 and 138, first eluting isomer]
< 200 nM

Proceed to C=C(CN(C)C)C(=O)N1C2CCC1CC(c1ccn3ncnc(Nc4ccc(Oc5ccn6ncnc6c5)c(C)c4)c13)C2 (single isomer, unassigned) [Examples 126 and 127, second eluting isomer]
200 to 500 nM

Proceed to Cc1cc(Nc2ncnn3ccc(C4CCN(C(=O)[C@@H](F)Cl)CC4)c23)ccc1Oc1ccn2ncnc2c1 (single isomer, unassigned; second eluting) [Examples 173 and 174, second eluting isomer]
< 200 nM

Proceed to C=CC(=O)N1CCCC(c2ccn3ncnc(Nc4ccc(Oc5ccn6ncnc6c5)c(C)c4)c23)CC1 (single isomer, unassigned) [Examples 111 and 112, first eluting isomer]
< 200 nM

Proceed to Cc1cc(Nc2ncnn3ccc(C4CCCN(C(=O)/C=C/CN(C)C)C4)c23)ccc1Oc1ccn2ncnc2c1 (single isomer, unassigned) [Examples 107 and 108, second eluting isomer]
500 to 1500 nM

Proceed to C=CC(=O)N1CC2CCC1CC2c1ccn2ncnc(Nc3ccc(Oc4ccn5ncnc5c4)c(C)c3)c12 (single isomer, unassigned) [Examples 139 and 140, first eluting isomer]
< 200 nM

Proceed to C=C(CN(C)C)C(=O)N1C2CCC1CC(c1ccn3ncnc(Nc4ccc(Oc5ccn6ncnc6c5)c(C)c4)c13)C2 (single isomer, unassigned) [Examples 126 and 127, first eluting isomer]
< 200 nM

---

- tested-system: BaF3_HER2YVMA cells (Homo sapiens, UniProt P04626, DUP772-775, cells depend on it)
- Sequence (P04626 with tags, fused parts or gaps DUP772-775): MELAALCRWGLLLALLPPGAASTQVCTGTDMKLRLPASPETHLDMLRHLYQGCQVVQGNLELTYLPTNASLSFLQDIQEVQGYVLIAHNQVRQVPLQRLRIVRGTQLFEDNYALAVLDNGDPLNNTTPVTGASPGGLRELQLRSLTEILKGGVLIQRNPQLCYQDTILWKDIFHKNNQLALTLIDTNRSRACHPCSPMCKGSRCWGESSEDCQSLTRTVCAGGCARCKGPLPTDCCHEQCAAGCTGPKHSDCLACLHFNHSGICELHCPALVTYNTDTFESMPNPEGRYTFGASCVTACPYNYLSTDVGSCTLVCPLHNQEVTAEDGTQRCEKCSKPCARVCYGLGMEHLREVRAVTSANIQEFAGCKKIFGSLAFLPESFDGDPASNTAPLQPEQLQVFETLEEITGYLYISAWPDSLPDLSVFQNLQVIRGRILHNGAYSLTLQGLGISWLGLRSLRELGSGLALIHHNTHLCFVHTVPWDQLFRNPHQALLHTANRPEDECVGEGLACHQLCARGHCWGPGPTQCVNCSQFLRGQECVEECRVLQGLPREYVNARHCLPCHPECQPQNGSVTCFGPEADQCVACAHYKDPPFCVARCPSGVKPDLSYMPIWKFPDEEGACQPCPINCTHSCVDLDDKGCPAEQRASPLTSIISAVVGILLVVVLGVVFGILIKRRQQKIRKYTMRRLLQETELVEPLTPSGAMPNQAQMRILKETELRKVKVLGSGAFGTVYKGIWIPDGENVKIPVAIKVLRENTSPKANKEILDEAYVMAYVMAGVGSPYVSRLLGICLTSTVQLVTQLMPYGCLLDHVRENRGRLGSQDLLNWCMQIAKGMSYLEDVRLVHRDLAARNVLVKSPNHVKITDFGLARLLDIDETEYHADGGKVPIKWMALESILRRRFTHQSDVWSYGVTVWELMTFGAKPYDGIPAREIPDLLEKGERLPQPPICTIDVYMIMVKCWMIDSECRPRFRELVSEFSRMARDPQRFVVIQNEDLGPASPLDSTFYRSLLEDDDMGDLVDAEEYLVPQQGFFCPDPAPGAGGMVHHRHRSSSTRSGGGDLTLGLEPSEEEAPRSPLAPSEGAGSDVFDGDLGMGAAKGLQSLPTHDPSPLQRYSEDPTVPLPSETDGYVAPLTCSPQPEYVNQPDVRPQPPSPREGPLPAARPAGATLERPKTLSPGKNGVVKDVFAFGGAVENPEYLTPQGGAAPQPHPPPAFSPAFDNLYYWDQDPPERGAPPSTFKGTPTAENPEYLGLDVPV
- assay-text: Cell growth inhibition assay (CellTiterGlo), BaF3_HER2YVMA
- Assay type: cell-based
- condition: 3-day treatment, CellTiterGlo, read-out: Cell growth inhibition activity, HER2 - YVMA
measured-attribute: GI50

What does the record list as GI50 for Cc1cc(Nc2ncnn3ccc(C4CN(C(=O)/C=C/CC(C)C)C4)c23)ccc1Oc1ccn2ncnc2c1 [Example 43] ?
0.2 to 0.5 µM

Proceed to Cc1cc(Nc2ncnn3ccc(N4CC(NC(=O)/C=C/CN(C)C)C4)c23)ccc1Oc1ccn2ncnc2c1 [Example 71]
0.2 to 0.5 µM

Proceed to COC1CCN(C/C=C/C(=O)N2CCC(c3ccn4ncnc(Nc5ccc(Oc6ccn7ncnc7c6)c(C)c5)c34)CC2)C1 (stereo not shown) [Example 118]
< 0.2 µM

Proceed to C=CC(=O)NC1CCCN(c2ccn3ncnc(Nc4ccc(Oc5ccn6ncnc6c5)c(C)c4)c23)C1 (stereo not shown) [Example 76]
0.5 to 1.5 µM

---

Please provide measured GI50 for the entries that follow.
- tested-system: BaF3_HER2WT cells (Homo sapiens, UniProt P04626)
- assay-text: Cell growth inhibition assay (CellTiterGlo), BaF3_HER2WT
- Type: cell-based
- condition: 3-day treatment, CellTiterGlo, read-out: Cell growth inhibition activity, HER2 WT

What does the record list as GI50 for Cc1cc(Nc2ncnn3ccc(C4CN(C(=O)/C=C/CN(C)C)C4)c23)ccc1Oc1ccc2c(c1)ncn2C [Example 101] ?
< 200 nM

Proceed to C=CC(=O)N1CC(N(C)c2ccn3ncnc(Nc4ccc(Oc5ccn6ncnc6c5)c(C)c4)c23)C1 [Example 77]
200 to 500 nM

Proceed to COC1CN(C/C=C/C(=O)N2CCC(c3ccn4ncnc(Nc5ccc(Oc6ccn7ncnc7c6)c(C)c5)c34)CC2)C1 [Example 117]
< 200 nM

Proceed to C=CC(=O)N(C)C1CCN(c2ccn3ncnc(Nc4ccc(Oc5ccn6ncnc6c5)c(C)c4)c23)C1 (centres unmarked) [Example 72]
< 200 nM

Proceed to Cc1cc(Nc2ncnn3ccc(N4CC(NC(=O)/C=C/CN(C)C)C4)c23)ccc1Oc1ccn2ncnc2c1 [Example 71]
< 200 nM

---

- tested-system: BaF3_HER2WT cells (Homo sapiens)
- assay-text: Cell growth inhibition assay (CellTiterGlo), BaF3_HER2WT
- Assay type: cell-based
- condition: 3-day treatment, CellTiterGlo, read-out: Cell growth inhibition activity, HER2 WT
measured-attribute: GI50

What does the record list as GI50 for COC1(c2ccn3ncnc(Nc4ccc(Oc5ccn6ncnc6c5)c(C)c4)c23)CCN(C(=O)/C=C/CN(C)C)CC1 ?
200 to 500 nM

Proceed to Cc1cc(Nc2ncnn3ccc(C4(F)CCN(C(=O)/C=C/CN(C)C)CC4)c23)ccc1Oc1ccn2ncnc2c1
1500 to 5000 nM

Proceed to Cc1cc(Nc2ncnn3ccc(N4CCN(C(=O)/C=C/CN(C)C)CC4=O)c23)ccc1Oc1ccn2ncnc2c1
500 to 1500 nM

---

- tested-system: BaF3_HER2WT cells (Homo sapiens, UniProt P04626)
- assay-text: Cell growth inhibition assay (CellTiterGlo), BaF3_HER2WT
- Format: cell-based
- condition: 3-day treatment, CellTiterGlo, read-out: Cell growth inhibition activity, HER2 WT
measured-attribute: GI50

What does the record list as GI50 for Cc1cc(Nc2ncnn3cnc(C4CCN(C(=O)/C=C/CN(C)C)CC4)c23)ccc1Oc1ccn2ncnc2c1 [Example 88] ?
500 to 1500 nM

Proceed to C=C(F)C(=O)N1CC=C(c2ccn3ncnc(Nc4ccc(Oc5ccn6ncnc6c5)c(C)c4)c23)CC1 [Example 26]
200 to 500 nM

Proceed to C=CC(=O)NC1CCN(c2ccn3ncnc(Nc4ccc(Oc5ccn6ncnc6c5)c(C)c4)c23)C1 (stereo not shown) [Example 79]
< 200 nM

Proceed to Cc1cc(Nc2ncnn3ccc(C4CN(C(=O)/C=C\C56CCCN5CCC6)C4)c23)ccc1Oc1ccn2ncnc2c1 [Example 160]
< 200 nM

---

- tested-system: BaF3_HER2YVMA cells (Homo sapiens, UniProt P04626, DUP772-775, cells depend on it)
- assay-text: Cell growth inhibition assay (CellTiterGlo), BaF3_HER2YVMA
- Format: cell-based
- condition: 3-day treatment, CellTiterGlo, read-out: Cell growth inhibition activity, HER2 - YVMA
measured-attribute: GI50

What does the record list as GI50 for CO[C@H]1CN(C/C=C/C(=O)N2CC(c3ccn4ncnc(Nc5ccc(Oc6ccc7c(c6)ncn7C)c(C)c5)c34)C2)C[C@H]1OC ?
< 200 nM

Proceed to C=CC(=O)N1CC(c2ccn3ncnc(Nc4ccc(Oc5ccn6ncnc6c5)c(C)c4)c23)C1
< 200 nM

Proceed to COC/C=C/C(=O)N1CC(c2ccn3ncnc(Nc4ccc(Oc5ccn6ncnc6c5)c(C)c4)c23)C1
200 to 500 nM

Proceed to Cc1cc(Nc2ncnn3ccc(C4=CCN(C(=O)/C=C/CN(C)C)C4)c23)ccc1Oc1ccn2ncnc2c1 [Example 29, acetate]
1500 to 5000 nM

Proceed to Cc1cc(Nc2ncnn3ccc(C4CN(C(=O)/C=C/C56CCCN5CCC6)C4)c23)ccc1Oc1ccn2ncnc2c1
< 200 nM

Proceed to Cc1cc(Nc2ncnn3ccc(C(=O)NCCCN(C)C)c23)ccc1N
> 5000 nM

Proceed to Cc1cc(Nc2ncnn3ccc(C4CN(C(=O)/C(F)=C/C5CCCN5C)C4)c23)ccc1Oc1ccn2ncnc2c1 (centres unmarked)
< 200 nM

Proceed to Cc1cc(Nc2ncnn3ccc(C4CCN(C(=O)/C=C/CN5CCC6(COC6)C5)CC4)c23)ccc1Oc1ccn2ncnc2c1
< 200 nM

Proceed to C=CC(=O)NC1CCN(c2ccn3ncnc(Nc4ccc(Oc5ccn6ncnc6c5)c(C)c4)c23)C1 (centres unmarked)
200 to 500 nM

Proceed to Cc1cc(Nc2ncnn3ccc(C4CCN(C(=O)/C=C/CN5CCCCC5)CC4)c23)ccc1Oc1ccn2ncnc2c1
< 200 nM

Proceed to Cc1cc(Nc2ccn3ncnc(C4CC5CCC(C4)N5C(=O)/C=C/CN(C)C)c23)ccc1Oc1ccn2cnnc2c1 (centres unmarked) [Example 33, acetate]
200 to 500 nM

Proceed to C=CC(=O)NC1CCN(C(=O)c2ccn3ncnc(Nc4ccc(Oc5ccn6ncnc6c5)c(C)c4)c23)CC1
200 to 500 nM

Proceed to C=CC(=O)N1C[C@H]2C[C@@H]1C[C@@H]2c1ccn2ncnc(Nc3ccc(Oc4ccn5ncnc5c4)c(C)c3)c12
500 to 1500 nM

Proceed to Cc1cc(Nc2ncnn3ccc(C4CCN(C(=O)/C=C/CO)CC4)c23)ccc1Oc1ccn2ncnc2c1
< 200 nM

Proceed to COC/C=C/C(=O)N1CCC(c2ccn3ncnc(Nc4ccc(Oc5ccn6ncnc6c5)c(C)c4)c23)CC1
500 to 1500 nM

Proceed to Cc1cc(Nc2ncnn3ccc(C4CN(C(=O)/C=C/CN5CC(F)(F)C5)C4)c23)ccc1Oc1ccn2ncnc2c1
500 to 1500 nM

Proceed to Cc1cc(Nc2ncnn3ccc(C4CCN(C(=O)/C=C/CN5CCC6(COC6)C5)CC4)c23)ccc1Oc1ccc2c(c1)ncn2C
< 200 nM
